meta.source: the NIST ThermoML archive (doi:10.1021/je060139a)

- measurement-context: 318.15 K, Wilhelmy plate method
reported-metric: surface tension liquid-gas (mN/m)

Sample answers from the record:
CCO :: 20.6
CCC(=O)OCc1ccccc1 [benzyl propanoate] :: 32.4
CC(=O)OCc1ccccc1 [benzyl ethanoate] :: 34.1

1 = CCOC(=O)CC(C)C [ethyl 3-methylbutanoate]
2 = CCOC(=O)c1ccccc1O [ethyl 2-hydroxybenzoate]
[ask] Would you mind telling me which has the lower recorded surface tension liquid-gas between 1 and 2 ? Choose, then provide that item's label.
[reply] 1
(1: 21.6 mN/m, 2: 34.4 mN/m)

###

- assay-procedure: refractive index (Na D-line) (dimensionless); xn = mol fraction of the nth substance listed
- measurement-context: 308.15 K; 100.5 kPa; Liquid; Standard Abbe refractometry; x1 = 0.35
reported-metric: refractive index

CCC(=O)OCc1ccccc1 [benzyl propanoate] + CCO :: 1.43696
CCOC(=O)c1ccccc1O [ethyl 2-hydroxybenzoate] + CCO :: 1.44908
CCOC(=O)CC(C)C [ethyl 3-methylbutanoate] + CCO :: 1.3751
CC(=O)OCc1ccccc1 [benzyl ethanoate] + CCO :: 1.43604
COC(=O)c1ccccc1 [methyl benzoate] + CCO :: 1.4398
CCOC(=O)CC(C)=O [ethyl 3-oxobutanoate] + CCO :: 1.3866
